- System Tested: TEAD2 (Homo sapiens, UniProt Q15562)
- Sequence (Q15562 whole entry, species assumed): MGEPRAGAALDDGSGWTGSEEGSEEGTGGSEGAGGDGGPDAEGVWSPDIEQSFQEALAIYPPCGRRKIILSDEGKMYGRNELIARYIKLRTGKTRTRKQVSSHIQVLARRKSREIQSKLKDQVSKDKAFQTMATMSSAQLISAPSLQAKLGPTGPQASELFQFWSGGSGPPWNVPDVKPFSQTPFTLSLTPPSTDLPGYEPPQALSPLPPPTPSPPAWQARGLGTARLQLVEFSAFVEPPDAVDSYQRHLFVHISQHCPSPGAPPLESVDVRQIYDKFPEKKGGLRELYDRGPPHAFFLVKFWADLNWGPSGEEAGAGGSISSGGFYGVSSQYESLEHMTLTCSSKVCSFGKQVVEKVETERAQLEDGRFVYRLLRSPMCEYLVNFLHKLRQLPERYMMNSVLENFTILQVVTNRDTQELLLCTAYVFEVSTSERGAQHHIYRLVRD
- Experiment Summary: TEAD lipid assay (Lipid FP, Bodipy-C16 probe displacement)
- Assay type: binding
- Condition Details: fluorescence polarization, His-tagged TEAD, 60 minutes incubation
pIC50: −log10 of the molar value.
Measured Attribute: pIC50

COc1ncc(NS(C)(=O)=O)cc1/C=C/[C@H]1CC[C@H](C(F)(F)F)CC1 | 6.16
COc1ccc(NS(C)(=O)=O)cc1/C=C/C1CCC(C)CC1 (single isomer, unassigned) | 6.02
COc1cnc(NS(C)(=O)=O)cc1/C=C/C1(F)CCC(C(F)(F)F)CC1 (stereo not shown) | 6.07
COc1ccc(NS(C)(=O)=O)cc1C1CC1C1CCCCC1 (single isomer, unassigned) | 6.00

====

- System Tested: UniProtKB Q99594
- Sequence (Q99594 whole entry, species assumed): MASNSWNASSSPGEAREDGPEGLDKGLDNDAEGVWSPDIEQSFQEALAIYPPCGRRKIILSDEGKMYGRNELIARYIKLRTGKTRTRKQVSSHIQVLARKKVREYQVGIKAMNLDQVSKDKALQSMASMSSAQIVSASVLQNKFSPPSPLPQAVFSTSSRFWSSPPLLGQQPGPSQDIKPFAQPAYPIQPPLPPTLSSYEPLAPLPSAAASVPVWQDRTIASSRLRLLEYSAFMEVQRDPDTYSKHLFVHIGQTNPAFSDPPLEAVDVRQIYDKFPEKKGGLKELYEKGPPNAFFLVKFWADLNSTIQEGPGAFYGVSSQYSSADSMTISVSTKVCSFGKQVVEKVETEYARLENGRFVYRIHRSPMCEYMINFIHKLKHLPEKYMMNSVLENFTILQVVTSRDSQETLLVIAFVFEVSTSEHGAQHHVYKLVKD
- Experiment Summary: TEAD lipid assay (Lipid FP, Bodipy-C16 probe displacement)
- Assay type: binding
- Condition Details: fluorescence polarization, His-tagged TEAD, 60 minutes incubation
Measured Attribute: IC50 (nM)

Worked cases, IC50 given:
CC[C@H](CO)NC(=O)c1cc(/C=C/C2CC3(CC3)C2)c(OC)cn1 [Compound 44] | 700
COc1cnc(NS(C)(=O)=O)cc1/C=C/C1CCC(C(F)(F)F)CC1 (centres unmarked) [Compound 48] | 1600
COc1ccc(NS(C)(=O)=O)cc1/C=C/C1CCC(F)(F)CC1 [Compound 2] | 1500

1: COc1ccc(C(N)=O)cc1/C=C/C1CCCCC1 [Compound 31]
2: COc1ccc(NS(C)(=O)=O)cc1/C=C/C1CCC(C)CC1 (single isomer, unassigned) [Compound 6A]
3: CS(=O)(=O)Nc1cnc(C2CC2)c(/C=C/C2CCC(F)(F)CC2)c1 [Compound 52]
Order the entries by their reported IC50, beginning at the minimum. Put the labels in the requested order and write them down. 1, 2, 3
(1: 970 nM, 2: 1700 nM, 3: 13000 nM)

====

- System Tested: TEAD2 (Homo sapiens, UniProt Q15562)
- Experiment Summary: TEAD lipid assay (Lipid FP, Bodipy-C16 probe displacement)
- Assay type: binding
- Condition Details: fluorescence polarization, His-tagged TEAD, 60 minutes incubation
Measured Attribute: IC50 (µM)

COc1cnc(C(=O)NC[C@H](O)CO)cc1/C=C/C1CC2(CC2)C1 | 0.98

I: Cc1cn(Cc2ccc(Cl)cc2)c2cc(NS(=O)(=O)C3CC3)ccc12
II: CCOc1ncc(NS(C)(=O)=O)cc1/C=C/C1CCC(F)(F)CC1
III: CC[C@H](CO)NC(=O)c1cc(/C=C/[C@H]2CC[C@H](C(F)(F)F)CC2)c(OC)cn1
Put the items in sequence by IC50, from largest down. Put the labels in the requested order and write them down. II, I, III

====

- System Tested: TEAD2 (Homo sapiens)
- Experiment Summary: TEAD lipid assay (Lipid FP, Bodipy-C16 probe displacement)
- Format: binding
- Condition Details: fluorescence polarization, His-tagged TEAD, 60 minutes incubation
pIC50: −log10 of the molar value.
Measured Attribute: pIC50

COc1ccc(NS(=O)(=O)C2CC2)cc1/C=C/c1ccc(Cl)cc1 [Compound 49] | 6.12
COc1nc(F)c(NS(C)(=O)=O)cc1/C=C/C1CCC(F)(F)CC1 [Compound 39] | 6.26
COc1ncc(NS(C)(=O)=O)cc1/C=C/C1CC(C)(C)C1 [Compound 36] | 6.02
COc1nc(F)c(NS(C)(=O)=O)cc1/C=C/C1CCCCC1 [Compound 38] | 5.96

A: COc1ncc(NS(C)(=O)=O)cc1/C=C/C1CC2(CC2)C1 [Compound 17]
B: COc1ccc(NS(=O)(=O)C2CC2)cc1-c1ccc(C(C)C)cc1 [Compound 25]
// which entry reports the smaller pIC50, A or B ? API: response body contains the label of the selected item. A

P: COc1ccc(NS(C)(=O)=O)cc1/C=C/CC1CCCCC1 [Compound 4]
Q: CC[C@H](CO)NC(=O)c1cc(/C=C/C2CC3(CC3)C2)c(OC)nn1 [Compound 47]
// which entry reports the smaller pIC50, P or Q ? API: response body contains the label of the selected item. Q
